Here the recorded Mean relative activity is given for each entry.
# Test system: K562 CRISPRi cells
# TEST METHOD NOTES: Constant region variant library pooled growth screen, K562
# Assay type: cell-based, human
# CONDITION DETAILS: sgRNA constant region variants; activity relative to the original, un-modified constant region cr995
API note: the answer field is a bare number with no unit suffix.

cr414 (nucleic acid, listed as DNA, chemistry not fully specified) guide: GTTTAAGAGCTAAGCTGGAAACAGCATAGCAAGTTTAAATAAGGCTAGTCCGTTATCAACTTGAAAAAGTGGCTCCGAGTCGGTGCT; 0.8852

stdin: If you can, please state the reported Mean relative activity value of cr817 (nucleic acid, listed as DNA, chemistry not fully specified) guide: GTTTAAGAGCTAAGCTGGAAACAGCATAGCAAGGTTAAATAGGGCTAGTCCGTTATCAACTTGATAAAGTGGCACCGAGTCGGTGCT .
stdout: −0.002514
